Reported GI50 values are given for each entry in this list.
# Tested on: TK-10
# ASSAY_COMMENT: NCI tumour cell line growth inhibition, 48 h
Active and inactive are the calls of the source. Rule as the data show it: active = GI50 up to about 1.1 µM and inactive = higher.
METRIC: GI50

In [3]: df
Out[3]:
                                    compound  metric              reading
 0  Cc1ccc(S(=O)(=O)N/N=C2\CC3CC4CCC2C4C3)cc1 (stereo unspecified)    GI50  > 100 µM (inactive)
 1     Cc1nc2ccccc2c(=O)n1NC(=O)c1ccc(CS)cc1    GI50   > 10 µM (inactive)
 2  CC(C)C/C=C/C1=NN(c2cccc(S(=O)(=O)O)c2)C2(C1)SCC(=O)N2c1nc2ccccc2s1 (stereo unspecified)    GI50   34.4 µM (inactive)
 3      O=c1cc(NNc2cccc(Cl)c2)[nH]c(=O)[nH]1    GI50   20.8 µM (inactive)
 4  COc1cc(OC)c(-c2ccc(OCc3ccccc3)c3c(OC)cc(C)cc23)c2c1C(C)=N[C@H](C)C2    GI50    1.8 µM (inactive)
 5  COC1OC(COCc2ccc(Cl)cc2)C(OCc2ccc(Cl)cc2)C1O (stereo unspecified)    GI50   25.5 µM (inactive)
 6                 CCc1n[nH]c(=O)n1-c1ccncc1    GI50  > 100 µM (inactive)
 7  CC(=O)NNc1nc(C)c(C(=O)NNC(=O)C(=O)Nc2c([N+](=O)[O-])ccc(C)c2C)s1    GI50  > 100 µM (inactive)
 8        O=C(CCn1[nH]c(=O)c(Cl)c(Cl)c1=O)NO    GI50  > 100 µM (inactive)
 9              CN(CC(=O)O)c1ncc2c(n1)C=CCC2    GI50  > 100 µM (inactive)
10  COc1ccc(/N=N/c2c(-c3ccccc3)nn(C(=O)CC(=O)Nc3ccccc3Cl)c2-c2ccccc2)cc1    GI50   77.6 µM (inactive)

----------
# Test system: OVCAR-3
# ASSAY_COMMENT: NCI tumour cell line growth inhibition, 48 h
Active and inactive are the calls of the source. No stated cut-off is given here; in the data, active = GI50 up to about 1.1 µM and inactive = higher.
METRIC: GI50

In [3]: df
Out[3]:
                                   compound  metric              reading
0       Cn1c2ccccc2n2c3ccccc3c3nnc(N)c-3c12    GI50   28.2 µM (inactive)
1  CCCCCCCCOCC(O)CO (configuration not stated)    GI50  > 100 µM (inactive)
2  CC1OC23CCCCC2C(C#N)(C#N)C1(C#N)C(=N)O3 (configuration not stated)    GI50   17.7 µM (inactive)
3  O=C1Nc2ccccc2C1(O)C/C(=N/O)c1ccc2ccccc2c1 (configuration not stated)    GI50  > 100 µM (inactive)
4  Cc1cn(CCCCCOC(=O)NC(CCCNC(=N)N)C(=O)O)c(=O)[nH]c1=O (configuration not stated)    GI50   50.9 µM (inactive)
5  CN(C)c1nc(N(C)C)nc(N(C)C23CC4CC(CC(C4)C2)C3)n1    GI50   17.1 µM (inactive)
6                       Cn1cnc(N)c(N=O)c1=O    GI50   > 10 µM (inactive)

Data origin, for the record: ChEMBL document CHEMBL1201862
